B1: tRNA (parent)
chain: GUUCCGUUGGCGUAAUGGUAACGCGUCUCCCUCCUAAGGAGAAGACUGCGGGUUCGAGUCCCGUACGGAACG

# Variants of: B1
# PROCEDURE_SUMMARY: yeast fitness relative to wild type (ratio to wild type); higher = fitter; tRNA-Arg(CCU), competitive growth, 37 C, YPD
This sample holds only a part of the variants without activity.
Hi, to clarify the labels: fulfilled covers yeast fitness from 0.6 upward, not fulfilled covers anything below 0.6.

Some solved entries appear below for comparison.
# QUERY_SEQUENCE, DISCRETE_LABEL
rows = [
    ("GUUCCGUUGGCGUAAUGGUAACGCGUCUCCCUCCUAAGGAGAAGACUGCGCGUUCGAGUGCCGUACUGAACG", "not fulfilled"),
    ("GUUCCGUUGGGGUAAUGGUAACGCGUCUCCGUCCUAAGGAGAAGACUGCGGGUUCGAGUCCCGUACGGAACG", "not fulfilled"),
    ("GUUCCGUUGGCGUAAUGGUAACGCGUCUCCCUCGUAAGGAGAUGACUGCGGGUUUGCGUCCCGUAAGGAACG", "fulfilled"),
    ("GCUCCGUUGGCGUAAUGGUAACGGGUCUCCCUCCUAAGGAGAAGACUGCGGGUUCGAGUCGCGUACGGAACG", "not fulfilled"),
    ("GUUCCGUUGGCGUAAUGGUUACGCGUCUCGCUACUAAGGAGAAGACUGCAGAUUCGAGUUGCGUACAGAACG", "not fulfilled"),
    ("GUUCCGUGGGCGUAAUGGUAUCGCGUCUCCCUCCUAAGGAGAAGACUGCGGGUUCAAGUCCCGUACGGAACG", "not fulfilled"),
]

// query Threshold query (yeast fitness >= 0.6) on GUUCCGUUGACGUAAUGGUAACGCGUCUCCUUCCUAAGGAGAACACUGCGGGUUCGAGUCCCGUACGGUACG
// result not fulfilled

// query Threshold query (yeast fitness >= 0.6) on GUUCCGUUGGCGUGAUGGUAAUGCGUCUCCCUCCUAAGGAGAAGUCUGCGGGUUCGAGUCCCGUACGGAACG
// result fulfilled

// query Threshold query (yeast fitness >= 0.6) on GUUCCGUUGGCGUAAUGGUAACGCGUGUCCCUCCUAAGGAGAACGCUGCGGGUUCGAGUCCCGAACGGAACG
// result not fulfilled

// query Threshold query (yeast fitness >= 0.6) on GUUCCGUUAGCUUUAUGGUAACGCGUCUCCCUCCUAAGGAGAAGACUGCGGGAUCGAGUCCCGUACGGAACG
// result not fulfilled

// query Threshold query (yeast fitness >= 0.6) on GUUCCGUAGGCGUGAUGGUAACGGGUCUCCCUCCUAAGGAGAAGCCUGCGGGUUCGAGUCCCGUACGGAACG
// result fulfilled

// query Threshold query (yeast fitness >= 0.6) on GUUCCGUUGGCGUAAUGGUAACGCAUCUGCCUCCUAAGGAGACGACUGCGGGUUCGAGUCACGUACGGUACG
// result not fulfilled

// query Threshold query (yeast fitness >= 0.6) on GUUCCGUUGGCGUAAUGGUAACGUGUCUCCCUCCUAAGGAGAAGACUGCGGGCUUGAGUCCCGUACGGAACG
// result not fulfilled

// query Threshold query (yeast fitness >= 0.6) on GUUCCGUUGGCGUAAUAGUAGCGCGCCUCCCUCCUAAGGAGAAGACUGCGGGUUCGAGUCCUGUACGGAACG
// result not fulfilled

// query Threshold query (yeast fitness >= 0.6) on GUUCCGUUGGCGUAAUGGUAACGCGUGUCCCUCCUAAGGAGAAGACUGCGGGUUCGGGGCCCGUACGGAACG
// result not fulfilled

Values compiled from the RNAGym collection of RNA variant scans (doi:10.1126/science.aae0568).
